- System: AncSZ;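 also: 11-residue human phosphosite peptides and single-mutation variants displayed on the E. coli surface, counted by deep sequencing, each peptide's frequency after selection divided by its frequency in the unselected input library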;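 also: frequency after pTyr selection over input frequency; kinase dosed for 20-30% of maximal phosphorylation in three min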
- experiment: phosphorylation enrichment, bacterial display (enrichment ratio); higher = better substrate or ligand; peptides without Tyr show the background

| sequence chain | phosphorylation enrichment |
| --- | --- |
| GPQGFYSNKLV [PTPN14_Y506_V505F] | 0.529 |
| FSLIHYASIVD [MYH7_Y582_G584S] | 1.07 |
| MIRSAYALGGL [CPS1_Y590] | 0.54 |
| FRTPGYREVVI [TNS2_Y673_A670T_YF] | 0.703 |
| DSIRDYEDGTE [CLNS1A_Y214_M218T] | 1.55 |
| QTPVLYAMLYH [MPZ_Y220_D224Y] | 1.1 |
| WGTAEYDSVVA [MAP1A_Y1883] | 1.4 |
| IRRQGYSHRIL [MYO3B_Y993] | 0.733 |
| LSPNMYNSKFW [TARSL2_Y457_L461F] | 1.24 |
| RHTRSYDFTEG [FGF7_Y56_M59T_YF] | 0.557 |
| SLMNQYVNKKF [RAB7A_Y28] | 0.474 |
| SSMSDYNPLEK [MYOC_Y479_I477S] | 0.87 |
| SDVCMYRKNIF [SYNE2_Y570_YF] | 0.906 |
| PSPMPYACCQM [FOXL2_Y215_S217C] | 0.703 |
